Hello, the source for this data is patent US20230109839A1, in case you need it.

Entries and their Nav1.1 current amplification rate (%) values follow.
Target: human Nav1.1 (Homo sapiens)
Construct: host or cells: HEK293
Assay: Amplification of Nav1.1-derived voltage-gated sodium current (Nav1.1 current), automated patch clamp (Test 1)
Type: cell-based
Conditions: Concentration for evaluation 10 μM; HEK293 cell line stably expressing human Nav1.1

molecule	assayed-system	value-unit	Nav1.1 current amplification rate (%)
CC1CCN(c2ccc(=O)n(CC(=O)Nc3ccc4c(c3)NC(=O)C4)n2)CC1	human Nav1.1 (Homo sapiens)	%	73
CC1CC=C(c2ccc(=O)n(CC(=O)N3CCc4c3ccnc4C3=CCNC3)n2)CC1 (centres unmarked)	human Nav1.1 (Homo sapiens)	%	40
CCc1nc2cc(NC(=O)Cn3nc(N4CCC(C)CC4)ccc3=O)ccc2o1	human Nav1.1 (Homo sapiens)	%	296
CC1CC=C(c2ccc(=O)n(CC(=O)N3CC4(C3)CN(c3cccnc3)C4)n2)CC1 (racemic)	human Nav1.1 (Homo sapiens)	%	40
CC1CCN(c2ccc(=O)n(CC(=O)Nc3cncc(Cl)c3)n2)CC1	human Nav1.1 (Homo sapiens)	%	49
CC1CCN(c2ccc(=O)n(CC(=O)Nc3cccc(-c4ncco4)c3)n2)CC1	human Nav1.1 (Homo sapiens)	%	78
N#Cc1ccc(NC(=O)Cn2nc(N3CCC(C(F)(F)F)CC3)ccc2=O)cc1	human Nav1.1 (Homo sapiens)	%	124
N#Cc1ccc(NC(=O)Cn2nc(N3CCC4(CC4)C3)ccc2=O)cc1	human Nav1.1 (Homo sapiens)	%	163
COc1cc(=O)n(CC(=O)N2CCc3c(N4CCOCC4)cccc32)nc1C1=CCC(C(F)(F)F)CC1 (centres unmarked)	human Nav1.1 (Homo sapiens)	%	343
CC1CCN(c2ccc(=O)n(CC(=O)Nc3ccc4oc(=O)[nH]c4c3)n2)CC1	human Nav1.1 (Homo sapiens)	%	121
N#Cc1ccc(NC(=O)Cn2nc(N3CC4CC4C3)ccc2=O)cc1 (centres unmarked)	human Nav1.1 (Homo sapiens)	%	11
CC1CCN(c2ccc(=O)n(CC(=O)Nc3ccnc(C(F)(F)F)c3)n2)CC1	human Nav1.1 (Homo sapiens)	%	248
CC1CC=C(c2ccc(=O)n(CC(=O)Nc3ccc(C4=CCN(C)C4)nc3)n2)CC1 (centres unmarked)	human Nav1.1 (Homo sapiens)	%	18
Cc1ccc(N2CCN(C(=O)Cn3nc(C4=CCC(C)CC4)ccc3=O)CC2)cn1 (centres unmarked)	human Nav1.1 (Homo sapiens)	%	136

###

Molecular target: human Nav1.1 (Homo sapiens, UniProt P35498)
Construct: host or cells: HEK293
Assay: Amplification of Nav1.1-derived voltage-gated sodium current (Nav1.1 current), automated patch clamp (Test 1)
Type: cell-based
Conditions: Concentration for evaluation 1 μM; HEK293 cell line stably expressing human Nav1.1
assay-readout: Nav1.1 current amplification rate (%)

compound	value-unit	experimental-result
CC1CC=C(c2ccc(=O)n(CC(=O)Nc3ccnc(N4CCOCC4)c3F)n2)CC1 (stereo not drawn)	%	84
O=C(Cn1ncc2cnc(-c3ccc(Cl)s3)nc21)Nc1ccn2ncnc2c1	%	50
CN(CC1CCCC1)c1cnc2cnn(CC(=O)Nc3ccn4ncnc4c3)c2n1	%	200
Cc1nccn1-c1ccc(NC(=O)Cn2ncc3ncc(N(C)C4CCCC4)nc32)cc1	%	26
CN(c1cnc2cnn(CC(=O)Nc3ccc(-n4ccnc4)nc3)c2n1)C1CCCC1	%	53
CC1CCN(c2cnc3cnn(CC(=O)Nc4ccc5cncnc5c4)c3n2)CC1	%	252
